Target: Human recombinant PDE3A (hPDE3A) (Homo sapiens)
Construct: purchased Scottish Biomedical; host or cells: Sf9 insect cells
Sequence (Q14432 whole entry): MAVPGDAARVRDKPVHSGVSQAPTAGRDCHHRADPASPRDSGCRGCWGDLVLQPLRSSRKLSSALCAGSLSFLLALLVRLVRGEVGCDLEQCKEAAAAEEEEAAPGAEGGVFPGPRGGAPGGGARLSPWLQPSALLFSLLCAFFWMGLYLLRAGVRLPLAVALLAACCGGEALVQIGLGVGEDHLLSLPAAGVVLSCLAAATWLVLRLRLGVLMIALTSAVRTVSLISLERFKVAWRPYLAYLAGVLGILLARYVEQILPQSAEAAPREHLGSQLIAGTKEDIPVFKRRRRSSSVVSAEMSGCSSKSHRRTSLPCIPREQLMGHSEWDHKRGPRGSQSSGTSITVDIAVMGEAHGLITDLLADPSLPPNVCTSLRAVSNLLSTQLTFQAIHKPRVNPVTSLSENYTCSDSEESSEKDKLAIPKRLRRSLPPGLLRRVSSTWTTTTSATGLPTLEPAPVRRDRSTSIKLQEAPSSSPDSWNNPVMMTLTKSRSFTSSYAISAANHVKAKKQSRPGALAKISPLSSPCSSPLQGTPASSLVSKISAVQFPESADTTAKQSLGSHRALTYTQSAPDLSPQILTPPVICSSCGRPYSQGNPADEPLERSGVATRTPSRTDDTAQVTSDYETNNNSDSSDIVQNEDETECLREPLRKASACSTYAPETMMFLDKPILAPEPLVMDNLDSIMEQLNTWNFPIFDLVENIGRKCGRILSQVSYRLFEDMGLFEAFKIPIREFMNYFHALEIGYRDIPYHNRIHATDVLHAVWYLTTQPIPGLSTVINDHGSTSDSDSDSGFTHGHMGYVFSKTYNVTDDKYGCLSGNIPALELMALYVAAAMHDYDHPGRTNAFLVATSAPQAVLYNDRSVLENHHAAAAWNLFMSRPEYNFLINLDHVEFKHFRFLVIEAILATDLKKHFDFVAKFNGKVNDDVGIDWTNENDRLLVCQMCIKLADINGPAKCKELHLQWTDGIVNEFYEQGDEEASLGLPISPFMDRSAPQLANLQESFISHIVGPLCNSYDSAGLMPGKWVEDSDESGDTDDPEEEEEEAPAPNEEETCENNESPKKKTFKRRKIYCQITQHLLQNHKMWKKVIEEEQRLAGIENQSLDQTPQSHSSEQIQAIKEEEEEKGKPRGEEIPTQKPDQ
Test: In vitro assay PDE3A (SPA, 3H-cAMP hydrolysis);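 note: the method names PDE3A and the table heading PDE3B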
Assay type: biochemical
Conditions: hPDE3B pIC50; read-out: pIC50 (converted)
Please go through the items and note down their IC50.
Numbers only here, please. The scale is µM.

stdin: Given the entry C[C@@H]1CCN(C(=O)c2cccc(C(F)(F)F)c2F)C[C@H]1c1cc(C(F)F)nc2ncnn12 , report its measured IC50.
stdout: 5.62

stdin: Would you mind doing C[C@@H]1CCN(C(=O)c2cc(C(C)(C)C)cc(C(C)(C)C)c2)C[C@H]1c1cc(C(F)F)nc2ncnn12 as well?
stdout: 3.55

stdin: And what about the molecule C[C@@H]1CCN(C(=O)c2ccc(Br)cn2)C[C@H]1c1cc(C(F)F)nc2ncnn12 ?
stdout: 3.09

----------
Molecular target: Human recombinant PDE10A (hPDE10A) (Homo sapiens, UniProt Q9Y233)
Construct: His tag (inferred from metal chelate purification); made in house; host or cells: Sf9 insect cells (baculovirus)
Sequence (Q9Y233 267-1055): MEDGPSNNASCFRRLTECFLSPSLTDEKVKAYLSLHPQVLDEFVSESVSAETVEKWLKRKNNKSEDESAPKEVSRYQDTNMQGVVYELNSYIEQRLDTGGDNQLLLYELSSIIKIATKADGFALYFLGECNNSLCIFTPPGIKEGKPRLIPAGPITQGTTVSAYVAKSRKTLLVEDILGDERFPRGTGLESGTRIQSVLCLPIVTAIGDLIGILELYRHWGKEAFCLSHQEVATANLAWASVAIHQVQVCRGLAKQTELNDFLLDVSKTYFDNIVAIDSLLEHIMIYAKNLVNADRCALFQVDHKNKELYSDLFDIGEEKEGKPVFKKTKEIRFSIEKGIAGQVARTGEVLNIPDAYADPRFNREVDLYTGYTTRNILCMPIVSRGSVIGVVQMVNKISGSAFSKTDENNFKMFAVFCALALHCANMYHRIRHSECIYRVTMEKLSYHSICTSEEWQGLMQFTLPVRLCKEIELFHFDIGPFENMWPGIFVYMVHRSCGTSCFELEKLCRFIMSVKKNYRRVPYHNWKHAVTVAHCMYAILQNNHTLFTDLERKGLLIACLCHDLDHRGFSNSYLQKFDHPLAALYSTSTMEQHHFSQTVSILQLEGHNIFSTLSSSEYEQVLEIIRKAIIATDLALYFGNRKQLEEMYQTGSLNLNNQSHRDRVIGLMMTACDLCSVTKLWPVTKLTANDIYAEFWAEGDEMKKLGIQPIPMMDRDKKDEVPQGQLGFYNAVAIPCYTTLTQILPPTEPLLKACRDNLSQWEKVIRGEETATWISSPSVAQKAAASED
Experiment: In vitro assay PDE10A, human clone (SPA, 3H-cAMP hydrolysis)
Type: biochemical
Conditions: human clone (h), default; read-out: hPDE10A2 Emax
Measurement label: Emax (%)
Give the value in % but do not write % after it.

stdin: Give Emax (Human recombinant PDE10A (hPDE10A) (Homo sapiens, UniProt Q9Y233)) of the following molecule: C[C@@H]1CCN(C(=O)c2ccc(O)c(C#N)c2)C[C@H]1c1cc(C(F)F)nc2ncnn12 [Compound 231]
stdout: 100

stdin: Same question for C[C@@H]1CCN(C(=O)c2ccc(C#N)cn2)C[C@H]1c1cc(C(F)F)nc2ncnn12 [Compound 234] please.
stdout: 59

stdin: What about C[C@@H]1CCN(C(=O)c2ccncc2N)C[C@H]1c1cc(C(F)F)nc2ncnn12 [Compound 142] ?
stdout: 79

stdin: Cool, now Cc1cc(C(=O)N2CC[C@@H](C)[C@H](c3cc(C(F)F)nc4ncnn34)C2)on1 [Compound 152]
stdout: 80

stdin: Proceed to COc1c(F)cc(C(=O)N2CC[C@@H](C)[C@H](c3cc(C(F)F)nc4ncnn34)C2)cc1F [Compound 128]
stdout: 98

stdin: How about Cc1cc(C(=O)N2CC[C@@H](C)[C@H](c3cc(C)nc4ncnn34)C2)cc(C2CC2)n1 [Compound 23] ?
stdout: 100

stdin: Let us now turn to COc1ccc(C(=O)N2CC[C@@H](C)[C@H](c3cc(C(F)F)nc4ncnn34)C2)cc1C#N [Compound 265]
stdout: 98

stdin: Same thing, different molecule: C[C@@H]1CCN(C(=O)c2csc(N)n2)C[C@H]1c1cc(C(F)F)nc2ncnn12 [Compound 158]
stdout: 78

stdin: Lookup C[C@@H]1CCN(C(=O)c2cc(Cl)ncc2F)C[C@H]1c1cc(C(F)F)nc2ncnn12 [Compound 54]
stdout: 89

stdin: Field entry: Cc1cc(C(=O)N2[C@H]3CC[C@H](c4cc(C(F)F)nc5ncnn45)[C@@H]2CC3)c(F)cn1 [Compound 86]
stdout: 40

stdin: Okay, and C[C@@H]1CCN(C(=O)c2ccc(C(F)(F)F)nc2Cl)C[C@H]1c1cc(C(F)F)nc2ncnn12 [Compound 242] ?
stdout: 56

stdin: Param item: C[C@@H]1CCN(C(=O)c2nc3ccccc3o2)C[C@H]1c1cc(C(F)F)nc2ncnn12 [Compound 47]
stdout: 92

stdin: And what about the molecule C[C@@H]1CCN(C(=O)c2ccc(N)nc2)C[C@H]1c1cc(C(F)F)nc2ncnn12 [Compound 181] ?
stdout: 94

stdin: Then this molecule: C[C@@H]1CCN(C(=O)c2ccc(F)c(C3CC3)c2)C[C@H]1c1cc(C(F)F)nc2ncnn12 [Compound 135]
stdout: 97

stdin: And C[C@@H]1CCN(C(=O)c2cc(F)cc(C#N)c2)C[C@H]1c1cc(C(F)F)nc2ncnn12 [Compound 190] ?
stdout: 96

stdin: Next molecule: C[C@@H]1CCN(C(=O)c2ccn3cccc3c2)C[C@H]1c1cc(C(F)F)nc2ncnn12 [Compound 90]
stdout: 102

stdin: For CCc1cc(C(=O)N2CC[C@@H](C)[C@H](c3cc(C(F)F)nc4ncnn34)C2)cc(C)n1 [Compound 80] then?
stdout: 98

stdin: Note, next up: Cc1nc2ccc(C(=O)N3CC[C@@H](C)[C@H](c4cc(C(F)F)nc5ncnn45)C3)cc2o1 [Compound 127]
stdout: 99

stdin: // next record COc1cc(C(=O)N2CC[C@@H](C)[C@H](c3cc(C(F)F)nc4ncnn34)C2)cc(C(C)C)n1 [Compound 122]
stdout: 100

stdin: C[C@@H]1CCN(C(=O)c2cccc(OC(F)(F)F)c2F)C[C@H]1c1cc(C(F)F)nc2ncnn12 [Compound 241] ?
stdout: 94

stdin: Could you do the same for C[C@@H]1CCN(C(=O)c2ncc(C#N)cc2Cl)C[C@H]1c1cc(C(F)F)nc2ncnn12 [Compound 238] , please?
stdout: 48

stdin: Same question for Cc1cc(C(=O)N2[C@H]3CC[C@@H]2[C@H](c2cc(C(F)F)nc4ncnn24)CC3)cc(C)n1 [Compound 30] please.
stdout: 32

stdin: Param item: Cc1nocc1C(=O)N1CC[C@@H](C)[C@H](c2cc(C(F)F)nc3ncnn23)C1 [Compound 184]
stdout: 75

stdin: Now consider Cc1cc(C(=O)N2C3CCC2[C@@H](c2cc(C(F)F)nc4ncnn24)CC3)cc(C2CC2)n1 (stereo partly drawn) [Compound 28] .
stdout: 95

stdin: # iterate: Cc1cc(C(=O)N2CC[C@@H](C)[C@H](c3cc(C(F)F)nc4ncnn34)C2)cc(F)c1F [Compound 189]
stdout: 96

stdin: Entry C[C@@H]1CCN(C(=O)c2ccc(C3CC3)c(C3CC3)c2)C[C@H]1c1cc(C(F)F)nc2ncnn12 [Compound 226] please
stdout: 100

stdin: Record: CC1(c2ccnc3ncnn23)CCCN(C(=O)c2ccc3occc3c2)C1 (stereo not drawn) [Compound 202]
stdout: 38

stdin: Also, Cc1nc(C(=O)N2CC[C@@H](C)[C@H](c3cc(C(F)F)nc4ncnn34)C2)c(C(F)(F)F)o1 [Compound 161] please.
stdout: 74

stdin: Try the molecule CC(C)c1n[nH]cc1C(=O)N1CC[C@@H](C)[C@H](c2cc(C(F)F)nc3ncnn23)C1 [Compound 61]
stdout: 92

stdin: Now try Cc1cc(C(=O)N2[C@H]3CC[C@@H]2[C@H](c2cc(C(F)F)nc4ncnn24)CC3)cc(C2CC2)n1 [Compound 274] .
stdout: 63

----------
Target: PDE2A (Rattus norvegicus, UniProt Q01062)
Construct: Twenty μm-thick striatal sections were cut; from tissue; host or cells: rat brain, striatal sections
Sequence (Q01062 whole entry): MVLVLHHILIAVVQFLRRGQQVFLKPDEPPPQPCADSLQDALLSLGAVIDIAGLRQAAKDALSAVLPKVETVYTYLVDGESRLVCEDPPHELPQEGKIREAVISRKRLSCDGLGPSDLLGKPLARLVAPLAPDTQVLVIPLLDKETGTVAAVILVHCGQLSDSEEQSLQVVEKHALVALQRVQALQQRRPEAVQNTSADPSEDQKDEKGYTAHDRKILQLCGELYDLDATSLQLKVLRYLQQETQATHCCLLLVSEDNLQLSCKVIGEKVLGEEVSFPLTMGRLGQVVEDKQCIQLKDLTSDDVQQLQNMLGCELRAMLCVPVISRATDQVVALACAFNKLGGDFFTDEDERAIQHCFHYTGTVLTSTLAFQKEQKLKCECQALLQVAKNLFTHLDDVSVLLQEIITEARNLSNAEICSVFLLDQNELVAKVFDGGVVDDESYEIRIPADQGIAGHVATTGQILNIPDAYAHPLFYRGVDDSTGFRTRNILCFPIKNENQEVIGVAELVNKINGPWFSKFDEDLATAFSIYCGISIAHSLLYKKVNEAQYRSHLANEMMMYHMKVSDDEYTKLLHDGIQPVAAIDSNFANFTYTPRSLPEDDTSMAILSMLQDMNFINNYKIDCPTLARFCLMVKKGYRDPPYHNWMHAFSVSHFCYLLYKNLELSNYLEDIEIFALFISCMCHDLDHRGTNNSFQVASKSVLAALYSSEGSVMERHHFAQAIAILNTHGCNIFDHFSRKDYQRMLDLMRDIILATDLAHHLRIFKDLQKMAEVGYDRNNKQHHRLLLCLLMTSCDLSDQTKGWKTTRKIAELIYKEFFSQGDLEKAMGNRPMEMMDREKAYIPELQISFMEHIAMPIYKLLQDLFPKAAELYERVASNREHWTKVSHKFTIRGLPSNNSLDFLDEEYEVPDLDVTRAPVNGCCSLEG
Test: PDE2 occupancy by test compounds, ex-vivo autoradiography with [3H]B-17a
Type: in vivo, Male Wistar rats
Settings: 10 mg/kg, route SC (subcutaneous), percentage receptor occupancy, ex-vivo autoradiography, striatum
Measurement label: receptor occupancy at 10 mg/kg (%)
All answers are understood in %, so give the number only.

stdin: Given the entry O=C(c1ccc2ncsc2c1)N1[C@H]2CC[C@H](c3cc(C(F)F)nc4ncnn34)[C@@H]1CC2 [Compound 25a] , report its measured receptor occupancy at 10 mg/kg.
stdout: 66

stdin: Next: Cc1cc(C(=O)N2[C@H]3CC[C@@H]2[C@H](c2cc(C(F)F)nc4ncnn24)CC3)cc(C)n1 [Compound 30]
stdout: 0

stdin: How about Cc1c(C(=O)N2[C@H]3CC[C@H](c4cc(C(F)F)nc5ncnn45)[C@@H]2CC3)oc2ccccc12 [Compound 273] ?
stdout: 65

stdin: How about Cc1cc(C(=O)N2[C@H]3CC[C@H](c4cc(C(F)F)nc5ncnn45)[C@@H]2CC3)cc(C)n1 [Compound 29] ?
stdout: 31

stdin: Here is the next compound: Cc1cc(C(=O)N2C3CCC2[C@@H](c2cc(C(F)F)nc4ncnn24)CC3)cc(C2CC2)n1 (some centres unmarked) [Compound 28]
stdout: 49

----------
I'd appreciate it if you could supply Emax values for the items below.
Target: Human recombinant PDE2A (hPDE2A) (Homo sapiens, UniProt O00408)
Construct: His tag (inferred from metal chelate purification); made in house; host or cells: Sf9 insect cells (baculovirus)
Sequence (O00408 whole entry): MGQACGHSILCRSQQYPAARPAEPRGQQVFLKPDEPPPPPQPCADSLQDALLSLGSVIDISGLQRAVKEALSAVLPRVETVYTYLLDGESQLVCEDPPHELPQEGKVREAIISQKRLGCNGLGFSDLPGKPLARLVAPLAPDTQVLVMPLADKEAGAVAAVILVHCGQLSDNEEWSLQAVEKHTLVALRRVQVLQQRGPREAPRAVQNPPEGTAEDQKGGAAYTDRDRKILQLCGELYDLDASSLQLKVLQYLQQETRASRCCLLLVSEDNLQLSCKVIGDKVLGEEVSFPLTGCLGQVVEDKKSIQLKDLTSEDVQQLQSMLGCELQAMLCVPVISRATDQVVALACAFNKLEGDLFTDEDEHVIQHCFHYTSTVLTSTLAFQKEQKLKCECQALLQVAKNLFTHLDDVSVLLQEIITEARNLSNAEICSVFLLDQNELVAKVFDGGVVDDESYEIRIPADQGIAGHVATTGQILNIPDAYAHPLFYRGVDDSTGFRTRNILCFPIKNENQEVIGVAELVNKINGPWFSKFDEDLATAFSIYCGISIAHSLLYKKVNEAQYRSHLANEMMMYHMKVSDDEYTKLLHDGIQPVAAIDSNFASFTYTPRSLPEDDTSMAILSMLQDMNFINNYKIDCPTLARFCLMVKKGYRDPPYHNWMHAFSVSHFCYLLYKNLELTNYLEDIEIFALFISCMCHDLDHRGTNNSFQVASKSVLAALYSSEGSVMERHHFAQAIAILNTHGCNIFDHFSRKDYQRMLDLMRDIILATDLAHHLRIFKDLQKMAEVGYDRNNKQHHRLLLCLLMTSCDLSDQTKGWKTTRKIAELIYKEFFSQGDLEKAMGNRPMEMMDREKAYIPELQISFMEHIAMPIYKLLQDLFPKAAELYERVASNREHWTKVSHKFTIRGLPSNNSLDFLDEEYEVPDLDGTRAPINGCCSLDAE
Assay: In vitro assay PDE2A (SPA, 3H-cGMP hydrolysis)
Assay type: biochemical
Conditions: human recombinant PDE2A; read-out: hPDE2A Emax
Write it as a number; the unit % goes unstated.

stdin: Provide the documented Emax with Human recombinant PDE2A (hPDE2A) (Homo sapiens, UniProt O00408) as the system for C[C@@H]1CCN(C(=O)c2c(F)cccc2F)C[C@H]1c1cc(C(F)F)nc2ncnn12
stdout: 99

stdin: Query Cc1c(C(=O)N2[C@H]3CC[C@@H]2[C@H](c2cc(C(F)F)nc4ncnn24)CC3)oc2ccccc12 next
stdout: 100

stdin: Moving on to the next compound: C[C@@H]1CCN(C(=O)c2cocn2)C[C@H]1c1cc(C(F)F)nc2ncnn12
stdout: 98

stdin: Next compound up: C[C@@H]1CCN(C(=O)c2cccc3c2OC(F)(F)O3)C[C@H]1c1cc(C(F)F)nc2ncnn12
stdout: 100
